Values compiled from ChEMBL document CHEMBL1130826.

Target: Gastrin/cholecystokinin type B receptor (Rattus norvegicus, UniProt P30553)
Sequence (P30553 whole entry): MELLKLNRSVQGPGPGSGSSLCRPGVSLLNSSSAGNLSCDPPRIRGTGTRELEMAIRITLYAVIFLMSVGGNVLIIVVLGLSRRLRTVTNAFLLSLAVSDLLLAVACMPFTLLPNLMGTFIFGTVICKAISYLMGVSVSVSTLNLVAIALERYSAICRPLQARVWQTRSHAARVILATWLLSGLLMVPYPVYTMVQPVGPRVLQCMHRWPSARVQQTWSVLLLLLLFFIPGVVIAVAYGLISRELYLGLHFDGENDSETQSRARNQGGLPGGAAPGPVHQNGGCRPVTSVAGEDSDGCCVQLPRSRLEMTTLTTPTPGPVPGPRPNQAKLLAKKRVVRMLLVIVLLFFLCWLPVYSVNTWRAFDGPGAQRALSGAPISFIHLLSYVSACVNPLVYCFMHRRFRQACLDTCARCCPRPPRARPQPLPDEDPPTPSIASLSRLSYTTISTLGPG
pKi: −log10 of the molar value.
Items are presented alongside their recorded pKi.
observed-property: pKi

compound: C[C@](Cc1c[nH]c2ccccc12)(NC(=O)OC1C2CC3CC(C2)CC1C3)C(=O)N1CC[C@H](Oc2ccc(Cl)cc2Cl)C[C@H]1C(=O)O (stereo partly drawn)
value: 6.10

compound: CC(Cc1c[nH]c2ccccc12)(NC(=O)OC1C2CC3CC(C2)CC1C3)C(=O)N1CC[C@@H](Oc2ccc(Cl)cc2Cl)C[C@@H]1C(=O)O (single isomer, unassigned)
value: 5.98

compound: C[C@](Cc1c[nH]c2ccccc12)(NC(=O)OC1C2CC3CC(C2)CC1C3)C(=O)N1C[C@H](Oc2ccc([N+](=O)[O-])cc2)C[C@@H]1C(=O)O (stereo partly drawn)
value: 7.49

compound: C[C@](Cc1c[nH]c2ccccc12)(NC(=O)OC1C2CC3CC(C2)CC1C3)C(=O)N1C[C@H](Oc2ccc(Cl)cc2Cl)C[C@@H]1C(=O)O (stereo partly drawn)
value: 7.82

compound: CC(Cc1c[nH]c2ccccc12)(NC(=O)OC1[C@H]2C[C@@H]3C[C@@H](C[C@H]1C3)C2)C(=O)N1CCC(C(=O)c2ccccc2)CC1 (stereo partly drawn)
value: 5.47

compound: C[C@](Cc1c[nH]c2ccccc12)(NC(=O)OC1C2CC3CC(C2)CC1C3)C(=O)N1CC[C@H](Oc2ccc(Cl)cc2Cl)C[C@@H]1C(=O)O (stereo partly drawn)
value: 6.76

compound: C[C@@](Cc1c[nH]c2ccccc12)(NC(=O)OC1C2CC3CC(C2)CC1C3)C(=O)N1CC[C@@H](Oc2ccc(Cl)cc2Cl)C[C@H]1C(=O)O (stereo partly drawn)
value: 6.05

compound: COC(=O)[C@H]1C[C@@H](Oc2ccc(Cl)cc2Cl)CCN1C(=O)[C@@](C)(Cc1c[nH]c2ccccc12)NC(=O)OC1C2CC3CC(C2)CC1C3 (stereo partly drawn)
value: 5.81

====

Biological target: Cholecystokinin receptor type A (Cavia porcellus)
Sequence (Q63931 whole entry): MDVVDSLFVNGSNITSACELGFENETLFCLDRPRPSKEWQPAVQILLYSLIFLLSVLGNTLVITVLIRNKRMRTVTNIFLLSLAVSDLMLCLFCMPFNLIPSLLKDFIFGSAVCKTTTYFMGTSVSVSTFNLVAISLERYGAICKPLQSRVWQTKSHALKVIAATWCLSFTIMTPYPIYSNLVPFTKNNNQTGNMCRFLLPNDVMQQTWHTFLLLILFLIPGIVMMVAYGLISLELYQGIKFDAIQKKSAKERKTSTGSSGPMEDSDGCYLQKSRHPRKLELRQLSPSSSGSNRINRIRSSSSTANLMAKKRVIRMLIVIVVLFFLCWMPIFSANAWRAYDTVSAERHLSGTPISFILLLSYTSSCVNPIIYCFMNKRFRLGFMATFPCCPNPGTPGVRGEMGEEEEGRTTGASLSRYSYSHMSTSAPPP
Assay: Binding affinity against CCK-A receptor in guinea pig pancreatic membranes
Assay type: cell membranes
pKi: −log10 of the molar value.
Items are presented alongside their recorded pKi.

compound: C[C@](Cc1c[nH]c2ccccc12)(NC(=O)OC1C2CC3CC(C2)CC1C3)C(=O)N1C[C@H](Oc2ccc(Cl)cc2Cl)C[C@@H]1C(=O)O (some centres undefined)
pKi: 6.12
--
compound: CC(Cc1c[nH]c2ccccc12)(NC(=O)OC1[C@H]2C[C@@H]3C[C@@H](C[C@H]1C3)C2)C(=O)N1CCC(C(=O)c2ccccc2)CC1 (some centres undefined)
pKi: 5.77
--
compound: C[C@@](Cc1c[nH]c2ccccc12)(NC(=O)OC1C2CC3CC(C2)CC1C3)C(=O)N1CC[C@H](Oc2ccc(Cl)cc2Cl)C[C@H]1C(=O)O (some centres undefined)
pKi: 5.97
--
compound: C[C@](Cc1c[nH]c2ccccc12)(NC(=O)OC1C2CC3CC(C2)CC1C3)C(=O)N(CCc1ccc(Cl)cc1)CC(=O)O (some centres undefined)
pKi: 5.97

====

Target: Gastrin/cholecystokinin type B receptor (Rattus norvegicus, UniProt P30553)
Sequence (P30553 whole entry): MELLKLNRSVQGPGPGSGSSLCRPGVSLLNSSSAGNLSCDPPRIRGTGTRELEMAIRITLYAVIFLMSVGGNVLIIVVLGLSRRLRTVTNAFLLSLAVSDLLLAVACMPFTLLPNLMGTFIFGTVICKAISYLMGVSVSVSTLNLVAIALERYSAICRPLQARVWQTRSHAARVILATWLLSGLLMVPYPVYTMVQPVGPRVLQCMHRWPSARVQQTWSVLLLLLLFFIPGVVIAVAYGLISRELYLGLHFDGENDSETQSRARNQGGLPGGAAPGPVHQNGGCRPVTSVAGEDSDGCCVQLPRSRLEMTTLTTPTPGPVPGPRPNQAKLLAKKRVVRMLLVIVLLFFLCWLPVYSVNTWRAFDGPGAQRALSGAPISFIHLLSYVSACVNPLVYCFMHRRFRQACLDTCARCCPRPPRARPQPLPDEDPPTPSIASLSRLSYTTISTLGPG
observed-property: IC50 (nM)

compound: C[C@](Cc1c[nH]c2ccccc12)(NC(=O)OC1C2CC3CC(C2)CC1C3)C(=O)N1C[C@H](Oc2ccc([N+](=O)[O-])cc2)C[C@@H]1C(=O)O (stereo partly specified)
value: 507
